pIC50 reference
target: UniProt:P18031; assay: Inhibition of PTP1B (unknown origin) using pNPP as substrate after 30 mins
Sequence (P18031 whole entry): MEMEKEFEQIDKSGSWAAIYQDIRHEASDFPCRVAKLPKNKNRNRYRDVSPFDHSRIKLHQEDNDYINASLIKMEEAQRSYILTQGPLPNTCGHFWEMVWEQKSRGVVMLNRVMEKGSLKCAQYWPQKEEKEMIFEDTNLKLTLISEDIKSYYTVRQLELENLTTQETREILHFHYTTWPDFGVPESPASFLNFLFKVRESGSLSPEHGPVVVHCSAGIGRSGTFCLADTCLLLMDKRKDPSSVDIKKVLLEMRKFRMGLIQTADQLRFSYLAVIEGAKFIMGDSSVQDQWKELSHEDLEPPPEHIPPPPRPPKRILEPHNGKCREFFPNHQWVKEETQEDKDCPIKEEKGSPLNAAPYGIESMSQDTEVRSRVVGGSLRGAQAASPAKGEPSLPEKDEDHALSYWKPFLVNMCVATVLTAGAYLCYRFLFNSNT
pIC50: −log10 of the molar value.
quantity name: pIC50

1) CCOS(=O)(=O)/C=C/c1ccc(O[C@@H]2CN(C(=O)C(=O)Nc3ccccc3)C[C@H]2Oc2ccc(/C=C/S(=O)(=O)OCC)cc2)cc1 5.60
2) CCOS(=O)(=O)/C=C/c1ccc(O[C@@H]2CN(C(=O)C(=O)Nc3ccc(Oc4ccc(Br)cc4)cc3)C[C@H]2Oc2ccc(CCS(=O)(=O)OCC)cc2)cc1 6.36
3) CCOS(=O)(=O)/C=C/c1ccc(O[C@H]2CNC[C@H]2Oc2ccc(/C=C/S(=O)(=O)OCC)cc2)cc1 4.56
4) CCOS(=O)(=O)/C=C/c1ccc(O[C@@H]2CN(C(=O)C(=O)Nc3ccc(Oc4ccc(C(C)C)cc4)cc3)C[C@@H]2Oc2ccc(CCS(=O)(=O)OCC)cc2)cc1 5.86
5) CCOS(=O)(=O)/C=C/c1ccc(O[C@@H]2CN(C(=O)C(=O)Nc3ccc(Oc4ccccc4)cc3)C[C@@H]2Oc2ccc(CCS(=O)(=O)OCC)cc2)cc1 5.55
6) CCOS(=O)(=O)/C=C/c1ccc(O[C@@H]2CN(C(=O)c3ccccc3)C[C@H]2Oc2ccc(/C=C/S(=O)(=O)OCC)cc2)cc1 5.11
